system: Plasmodium berghei; experiment: Screen against P. berghei liver stage (PbLuc), transformed with Luciferase, at 2uM; assay type: functional, HepG2; conditions: tested at 2 uM
In all, about 68,000 compounds went through this assay and about 2,700 (4%) showed an effect of 50% or more. The list comes from a sample in which strong results are over-represented; it also holds close analogues and randomly drawn compounds.
observation_type: INHIBITION
Please provide the amount together with its unit, number first.

Query: Form field - read-out: INHIBITION; system: Plasmodium berghei; submitted item: "COc1ccc(S(=O)(=O)Cc2cc(C)on2)cc1"
Reply: 21.24%

Query: // same read-out, input: COc1ccccc1CC(=O)NC1CCCc2cn[nH]c21 (stereo not given)
Reply: -1.29%

Query: // same read-out, input: "Cc1cccc(CN2CCc3cc(C(=O)O)c(N(C)C)nc3CC2)n1"
Reply: 30.19%

Query: // same read-out, input: COc1ccc(OCC2CCCN(Cc3ccncc3)C2)cc1 (stereo not given)
Reply: -1.29%

Query: // same read-out, input: "c1cnc(NCc2cncc3c2CCN(Cc2ccsc2)C3)nc1"
Reply: 46.11%

Query: // same read-out, input: Cc1nccn1-c1ccc(NC(=O)C2CCCN2Cc2ccoc2)cc1 (stereo not given)
Reply: 29.13%

Query: // same read-out, input: "COC[C@]1(O)CCN(Cc2cnc(N(C)C)nc2)CC1(C)C"
Reply: 10.24%

Query: // same read-out, input: "Fc1ccc(CN2CCC(c3nccnc3-n3ccnc3)CC2)cc1"
Reply: 16.87%

Query: // same read-out, input: Cc1ccc(OCC2CCCN(c3nc(CO)cs3)C2)cc1 (stereo not given)
Reply: -43.42%

Query: // same read-out, input: Fc1ccc(CN2CCCC(c3nccnc3-n3ccnc3)C2)cc1 (stereo not given)
Reply: 50.74%

Query: // same read-out, input: "Cc1oc(-c2ccsc2)nc1CC(=O)NCC(=O)Nc1cn[nH]c1"
Reply: 11.01%

Query: // same read-out, input: "CN1CCN(C(=O)c2cn(Cc3ccccc3)c3ncccc23)CC1"
Reply: 46.61%

Query: // same read-out, input: COC(=O)C(NC(=O)CC(C)C)c1cc(F)ccc1F (stereo not given)
Reply: 29.12%

Query: // same read-out, input: "Cc1ccc(CN2CCn3c(CN(C)C(C)C)cnc3C2)s1"
Reply: 18.2%

Query: // same read-out, input: Cc1nccn1-c1ccc(NC(=O)C2CCCN2Cc2c[nH]cn2)cc1 (stereo not given)
Reply: 31.51%

Query: // same read-out, input: CCN1CCC2(COCc3c(C)nc(N(C)C)nc32)C1 (stereo not given)
Reply: 25.31%

Query: // same read-out, input: "O=C(Cc1ccccn1)N1CCc2ncnc(N3CCCC3)c2CC1"
Reply: -3.19%

Query: // same read-out, input: "Fc1ccc(OCCNC2CCN(Cc3ccncc3)CC2)c(F)c1"
Reply: 4.19%

Query: // same read-out, input: "Cc1cc(CN(C)CCN(C)c2ccccc2)no1"
Reply: 7.62%

Query: // same read-out, input: "Cc1cnc(N2CCc3cc(C(=O)O)c(N(C)C)nc3CC2)nc1"
Reply: -1.81%

Query: // same read-out, input: Cc1nccn1-c1ccc(NC(=O)C2CCCN2CC2CC2)cc1 (stereo not given)
Reply: 69.67%

Query: // same read-out, input: "COc1cccc(S(=O)(=O)Cc2cc(C)on2)c1"
Reply: 57.59%

Query: // same read-out, input: Cc1ccc(OCC2CCCN(Cc3ccc(CO)o3)C2)cc1 (stereo not given)
Reply: 69.67%

Query: // same read-out, input: Cc1ccc(OCC2CCCN(C(=O)Cn3ccccc3=O)C2)cc1 (stereo not given)
Reply: 45.14%

Query: // same read-out, input: CCC(CO)N(Cc1ccccn1)C(=O)c1ccc(C)c(Cl)c1 (stereo not given)
Reply: 42.48%
